experimental-protocol: Cytotoxicity against MDBK cells
Type: cell-based, Bos taurus
reported-conditions: cattle
Items are presented alongside their recorded CC50.
measured-property: CC50

C(=C\c1ccccc1)/Cn1ccc2nc(-c3ccccc3)nc-2c1 : 78 µM
c1ccc(-c2nc3ccn(Cc4ccccn4)cc-3n2)cc1 : > 100 µM
O=C(O)c1ccc(Cn2ccc3nc(-c4ccccc4)nc-3c2)cc1 : > 100 µM
Clc1ccc(Cn2ccc3nc(-c4ccccc4)nc-3c2)cc1Cl : 71 µM
Fc1cccc(F)c1Cn1ccc2nc(-c3ccccc3)nc-2c1 : > 100 µM
FC(F)(F)c1ccc(Cn2ccc3nc(-c4ccccc4)nc-3c2)cc1 : 84 µM
COc1ccccc1Cn1ccc2nc(-c3ccccc3)nc-2c1 : > 100 µM
Fc1cccc(F)c1Cn1ccc2nc(-c3c(F)cccc3F)nc-2c1 : > 100 µM
FC(F)(F)Oc1ccc(Cn2ccc3nc(-c4ccccc4)nc-3c2)cc1 : 66 µM
c1ccc(-c2nc3cc[nH]cc-3n2)cc1 : > 100 µM
COc1cccc(Cn2ccc3nc(-c4ccccc4)nc-3c2)c1 : > 100 µM

====

experimental-protocol: Cytotoxicity against MDBK cells
Assay type: cell-based, Bos taurus
reported-conditions: cattle
measured-property: CC50

Fc1ccccc1Cn1ccc2nc(-c3ccccc3)nc-2c1 : > 100 µM
N#Cc1cccc(Cn2ccc3nc(-c4ccccc4)nc-3c2)c1 : > 100 µM
Fc1cccc(F)c1Cn1c(-c2c(F)cccc2F)nc2ccncc21 : 99 µM
Fc1ccc(Cn2ccc3nc(-c4ccccc4)nc-3c2)cc1 : > 100 µM
CCC(CC)Cn1ccc2nc(-c3ccccc3)nc-2c1 : > 100 µM
c1ccc(OCCn2ccc3nc(-c4ccccc4)nc-3c2)cc1 : > 100 µM
Cc1ccn(Cc2c(F)cccc2F)c2nc(-c3c(F)cccc3F)nc1-2 : > 100 µM
Clc1ccc(Cn2ccc3nc(-c4ccccc4)nc-3c2)cc1 : > 100 µM
Cc1cccc(Cn2ccc3nc(-c4ccccc4)nc-3c2)c1 : > 100 µM
Brc1cccc(Cn2ccc3nc(-c4ccccc4)nc-3c2)c1 : 85 µM
Ic1ccc(Cn2ccc3nc(-c4ccccc4)nc-3c2)cc1 : 22 µM
c1ccc(-c2ccc(Cn3ccc4nc(-c5ccccc5)nc-4c3)cc2)cc1 : 18 µM

====

experimental-protocol: Cytotoxicity against MDBK cells
Format: cell-based, Bos taurus
reported-conditions: cattle
Items are presented alongside their recorded CC50.
measured-property: CC50

c1ccc(CCCn2ccc3nc(-c4ccccc4)nc-3c2)cc1 : > 100 µM
c1ccc(-c2nc3ccn(Cc4ccncc4)cc-3n2)cc1 : > 100 µM
Brc1ccccc1Cn1ccc2nc(-c3ccccc3)nc-2c1 : > 100 µM
FC(F)(F)c1cccc(Cn2ccc3nc(-c4ccccc4)nc-3c2)c1 : 98 µM
CC(c1ccccc1)n1ccc2nc(-c3ccccc3)nc-2c1 (centres undefined) : > 100 µM
CC(C)(C)c1ccc(Cn2ccc3nc(-c4ccccc4)nc-3c2)cc1 : 22 µM
Fc1cccc(Cn2ccc3nc(-c4ccccc4)nc-3c2)c1 : > 100 µM
c1ccc(-c2nc3ccn(Cc4cccc5ccccc45)cc-3n2)cc1 : 61 µM
Clc1cccc(Cn2ccc3nc(-c4ccccc4)nc-3c2)c1 : > 100 µM
CC(C)=CCn1ccc2nc(-c3ccccc3)nc-2c1 : > 100 µM
c1ccc(-c2nc3ccn(Cc4ccc5ccccc5c4)cc-3n2)cc1 : 67 µM
c1ccc(CCCCn2ccc3nc(-c4ccccc4)nc-3c2)cc1 : 95 µM
Fc1cccc(F)c1Cn1cccc2nc(-c3c(F)cccc3F)nc1-2 : > 100 µM
Fc1cccc(F)c1-c1nc2ccn(CCc3ccccc3)cc-2n1 : > 100 µM
CC(C)N(CCn1ccc2nc(-c3ccccc3)nc-2c1)C(C)C : > 100 µM
FC(F)(F)c1ccccc1Cn1ccc2nc(-c3ccccc3)nc-2c1 : > 100 µM
Cc1ccc(Cn2ccc3nc(-c4ccccc4)nc-3c2)cc1 : > 100 µM
Cc1ccccc1Cn1ccc2nc(-c3ccccc3)nc-2c1 : > 100 µM
CCn1ccc2nc(-c3ccccc3)nc-2c1 : > 100 µM
c1ccc(-c2nc3ccn(CC4CCCCC4)cc-3n2)cc1 : > 100 µM
N#Cc1ccccc1Cn1ccc2nc(-c3ccccc3)nc-2c1 : > 100 µM
Clc1ccccc1Cn1ccc2nc(-c3ccccc3)nc-2c1 : > 100 µM
Fc1cccc(F)c1-c1nc2ccn(Cc3ccccc3)cc-2n1 : > 100 µM
COc1ccc(Cn2ccc3nc(-c4ccccc4)nc-3c2)cc1 : > 100 µM
